// values below are reported Ki
molecular target: SARS-CoV-2 Mpro (Severe acute respiratory syndrome coronavirus 2); experiment: SARS-CoV-2 Mpro FRET-based enzyme assay; type: biochemical; conditions: 5 nM Mpro, 25 μM FRET substrate, 20 min preincubation at room temperature; mean n=2; read-out: SARS-CoV-2 Mpro enzyme pKi assay pKi (converted)
measured_parameter: Ki (µM)

- CNC(=O)C(=O)C(CC1CC1)NC(=O)[C@@H]1[C@@H]2[C@H](CN1C(=O)[C@@H](NC(=O)C(C)C)C(C)(C)C)C2(C)C (stereo partly drawn): 0.0158
- CC(C)C(=O)NC(C(=O)N1C[C@H]2[C@@H]([C@H]1C(=O)NC(CC1CC1)C(=O)C(N)=O)C2(C)C)C1CCOC1 (stereo partly drawn): 0.158
- CC(C)C(=O)N[C@@H](CC1CC1)C(=O)N1C[C@H]2[C@@H]([C@H]1C(=O)NC(CC1CC1)C(=O)C(N)=O)C2(C)C (stereo partly drawn): 0.2
- C=CC(=O)N[C@H](C(=O)N1C[C@H]2[C@@H]([C@H]1C(=O)NC(CC1CC1)C(=O)C(N)=O)C2(C)C)C(C)(C)C (stereo partly drawn): 0.00398
- CC(C)C(=O)N[C@H](C(=O)N1C[C@H]2[C@@H]([C@H]1C(=O)NC(C[C@H]1C[C@@H]1C)C(=O)C(N)=O)C2(C)C)C(C)C (stereo partly drawn): 0.158
